# credit: patent US12180192B2

Target: THR alpha (Homo sapiens, UniProt P10827)
Construct: expressed in transfected cells; host or cells: HEK293T (ATCC CRL-3216)
Sequence (P10827 1-410 isoform P10827-2): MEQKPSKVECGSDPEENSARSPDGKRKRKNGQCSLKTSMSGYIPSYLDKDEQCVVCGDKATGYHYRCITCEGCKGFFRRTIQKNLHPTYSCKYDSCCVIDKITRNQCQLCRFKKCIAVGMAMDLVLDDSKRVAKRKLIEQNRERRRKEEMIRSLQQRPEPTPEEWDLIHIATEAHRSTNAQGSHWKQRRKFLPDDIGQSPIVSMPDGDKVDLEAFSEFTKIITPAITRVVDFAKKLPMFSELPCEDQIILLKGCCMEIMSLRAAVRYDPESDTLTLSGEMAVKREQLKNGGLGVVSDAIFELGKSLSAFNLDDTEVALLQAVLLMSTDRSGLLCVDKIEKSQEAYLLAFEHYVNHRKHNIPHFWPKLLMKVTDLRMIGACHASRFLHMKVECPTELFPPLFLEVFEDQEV
Sequence (P19793 whole entry partner): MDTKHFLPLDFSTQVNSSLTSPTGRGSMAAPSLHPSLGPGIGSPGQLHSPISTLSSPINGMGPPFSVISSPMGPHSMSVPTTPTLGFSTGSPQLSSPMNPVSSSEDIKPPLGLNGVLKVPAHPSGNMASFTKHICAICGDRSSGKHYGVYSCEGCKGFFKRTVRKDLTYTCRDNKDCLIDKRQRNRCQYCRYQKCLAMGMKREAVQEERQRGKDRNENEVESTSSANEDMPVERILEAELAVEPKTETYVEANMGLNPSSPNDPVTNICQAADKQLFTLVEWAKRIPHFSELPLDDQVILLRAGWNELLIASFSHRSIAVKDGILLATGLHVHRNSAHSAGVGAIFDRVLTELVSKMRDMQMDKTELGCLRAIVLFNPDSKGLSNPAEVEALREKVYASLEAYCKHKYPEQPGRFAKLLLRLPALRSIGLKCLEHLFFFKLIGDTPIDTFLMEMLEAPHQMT
Experiment: HEK293T THR alpha/RXR luciferase reporter assay (Assay 2)
Assay type: cell-based
Details: HEK293T reporter THRalpha/RXR; read-out: EC50 α
METRIC: pEC50
Remember the convention: pEC50 equals -log10 of concentration in molar.

Incoming: State recorded pEC50 with THR alpha (Homo sapiens, UniProt P10827), entry `Nc1nn(-c2cc(Cl)c(Oc3cc(C4CCC4)c(=O)[nH]n3)c(Cl)c2)c(=O)[nH]c1=O` , no comment.
Outgoing: 6.25

====

Biological target: THR alpha (Homo sapiens)
Construct: expressed in transfected cells; host or cells: HEK293T (ATCC CRL-3216)
Test: HEK293T THR alpha/RXR luciferase reporter assay (Assay 2)
Format: cell-based
Conditions: HEK-293T, Table 5; Assay 2; THRα; read-out: Activity category Assay 2 THRα (Emax)
Entries and their Emax

// worked examples, Emax included
COMPOUND: CC(C)c1c[nH]c2ccc(Oc3c(Cl)cc(-n4nc(C#N)c(=O)[nH]c4=O)cc3Cl)cc12 [Compound 1]
METRIC: Emax
READOUT_VALUE: > 75%

COMPOUND: Nc1nn(-c2cc(Cl)c(Oc3cc(Cc4ccc(=O)[nH]n4)c(=O)[nH]n3)c(Cl)c2)c(=O)[nH]c1=O [Compound 160]
METRIC: Emax
READOUT_VALUE: < 50%

COMPOUND: Nc1nn(-c2cc(Cl)c(Oc3cc(C4CC5(CC5)C4)c(=O)[nH]n3)c(Cl)c2)c(=O)[nH]c1=O [Compound 93]
METRIC: Emax
READOUT_VALUE: < 50%

Now look at this one.
Incoming: Consider the compound CC(C)c1cc(Oc2c(Cl)cc(-n3nc(N)c(=O)[nH]c3=O)c3c2CC3)n[nH]c1=O [Compound 79] and give its recorded Emax.
Outgoing: 50 to 75%

====

Molecular target: human thyroid receptor alpha ligand-binding domain (LBD) (Homo sapiens, UniProt P10827)
Construct: purchased Invitrogen
Assay: TR-FRET thyroid receptor alpha coactivator assay (THR biochemical assay, Assay 1)
Details: Table 5, THRα, read-out: Activity category Assay 1 THRα (Emax)
METRIC: Emax

MOLECULE: Cc1cccc(-c2cc(Oc3c(Cl)cc(-n4nc(N)c(=O)[nH]c4=O)cc3Cl)n[nH]c2=O)c1F [Compound 64]
STUDY_TARGET: human thyroid receptor alpha ligand-binding domain (LBD) (Homo sapiens, UniProt P10827)
METRIC: Emax
READOUT_VALUE: < 50%
--
MOLECULE: CC(C)NC(=O)c1c[nH]c2ccc(Oc3c(Cl)cc(-n4nc(C#N)c(=O)[nH]c4=O)cc3Cl)cc12 [Compound 20]
STUDY_TARGET: human thyroid receptor alpha ligand-binding domain (LBD) (Homo sapiens, UniProt P10827)
METRIC: Emax
READOUT_VALUE: < 50%
--
MOLECULE: CCCc1c[nH]c2ccc(Oc3c(Cl)cc(-n4nc(C#N)c(=O)[nH]c4=O)cc3Cl)cc12 [Compound 48]
STUDY_TARGET: human thyroid receptor alpha ligand-binding domain (LBD) (Homo sapiens, UniProt P10827)
METRIC: Emax
READOUT_VALUE: 50 to 75%
--
MOLECULE: Nc1nn(-c2cc(Cl)c(Oc3ccc4c(c3)C3(CC3)C(=O)N4)c(Cl)c2)c(=O)[nH]c1=O [Compound 143]
STUDY_TARGET: human thyroid receptor alpha ligand-binding domain (LBD) (Homo sapiens, UniProt P10827)
METRIC: Emax
READOUT_VALUE: > 75%
--
MOLECULE: Cc1cccc(-c2cc(=O)[nH]nc2Oc2c(Cl)cc(-n3ncc(=O)[nH]c3=O)cc2Cl)c1 [Compound 140]
STUDY_TARGET: human thyroid receptor alpha ligand-binding domain (LBD) (Homo sapiens, UniProt P10827)
METRIC: Emax
READOUT_VALUE: < 50%

Incoming: Answer briefly: Emax recorded on human thyroid receptor alpha ligand-binding domain (LBD) (Homo sapiens, UniProt P10827) for Nc1nn(-c2cc(Cl)c(Oc3cc(C45CCC(C4)C5)c(=O)[nH]n3)c(Cl)c2)c(=O)[nH]c1=O [Compound 101]
Outgoing: < 50%

Incoming: Recall the reported Emax of CC(C)c1cc(Oc2c(Cl)cc(-c3nn(C(F)F)c(=O)[nH]c3=O)cc2Cl)n[nH]c1=O [Compound 28] when tested on human thyroid receptor alpha ligand-binding domain (LBD) (Homo sapiens, UniProt P10827).
Outgoing: 50 to 75%
